# tested system: T1, human LAG-3 on cells (HEK293-hLAG-3 stable cell line) (human, UniProt P18627 23-525)
# T1 sequence: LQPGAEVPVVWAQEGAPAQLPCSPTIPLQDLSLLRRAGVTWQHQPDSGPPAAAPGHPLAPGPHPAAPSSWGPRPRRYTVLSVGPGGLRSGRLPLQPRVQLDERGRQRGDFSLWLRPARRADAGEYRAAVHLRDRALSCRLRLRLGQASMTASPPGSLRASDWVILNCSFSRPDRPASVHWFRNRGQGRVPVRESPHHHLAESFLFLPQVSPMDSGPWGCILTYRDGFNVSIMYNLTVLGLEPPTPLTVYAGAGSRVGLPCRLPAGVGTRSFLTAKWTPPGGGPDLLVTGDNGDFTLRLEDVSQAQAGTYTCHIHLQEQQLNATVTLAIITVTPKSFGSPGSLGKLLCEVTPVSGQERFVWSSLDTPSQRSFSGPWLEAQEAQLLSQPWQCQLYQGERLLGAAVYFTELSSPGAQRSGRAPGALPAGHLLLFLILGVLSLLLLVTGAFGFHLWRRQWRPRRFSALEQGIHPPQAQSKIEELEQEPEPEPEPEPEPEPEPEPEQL
# assay info: FACS, HEK293-hLAG-3, antibody 0.064 nM
Note to self: use Satisfied only for Mean fluorescence intensity readings below 20; a reading exactly at 20 still gets Not satisfied.

Example results:
405B8H3-1 humanized antibody (antibody, V domains shown) VH: QVQLVQSGAEVKKPGASVKVSCKASGYTFTDYEMHWVRQAPGQGLEWMGATDPETGNSAYNQKFKGRVTMTRDTSTSTVYMELSSLRSEDTAVYYCISTGWNDWGQGTTVTVSS VL: DIQMTQSPSSLSASVGDRVTITCKASQDINSYLSWFQQKPGKAPKSLIYRADRLLDGVPSRFSGSGSGTDFTLTISSLQPEDFATYYCLQYDEFPYTFGQGTKLEIK : Not satisfied
405B8H3-10 humanized antibody (antibody, V domains shown) VH: QVQLVQSGAEVKKPGASVKVSCKASGYTFTDYEMHWVRQAPGQGLEWMGATDPETGNSAYNQKFKGRVTMTADKSTSTVYMELSSLRSEDTAVYYCISTGWNDWGQGTTVTVSS VL: DIKMTQSPSSLSASVGDRVTITCKASQDINSYLSWFQQKPGKSPKSLIYRADRLLDGVPSRFSGSGSGQDYTLTISSLQPEDFATYYCLQYDEFPYTFGQGTKLEIK : Not satisfied
405B8H3-4 humanized antibody (antibody, V domains shown) VH: QVQLVQSGAEVKKPGASVKVSCKASGYTFTDYEMHWVKQAPGQGLEWIGATDPETGNSAYNQKFKGKATMTADKSTSTAYMELSSLRSEDTAVYYCISTGWNDWGQGTTVTVSS VL: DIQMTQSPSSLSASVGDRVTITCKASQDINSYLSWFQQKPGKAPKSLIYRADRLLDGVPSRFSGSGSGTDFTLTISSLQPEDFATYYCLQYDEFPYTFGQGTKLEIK : Not satisfied
405B8H3-11 humanized antibody (antibody, V domains shown) VH: QVQLVQSGAEVKKPGASVKVSCKASGYTFTDYEMHWVRQAPGQGLEWIGATDPETGNSAYNQKFKGRATMTADKSTSTAYMELSSLRSEDTAVYYCISTGWNDWGQGTTVTVSS VL: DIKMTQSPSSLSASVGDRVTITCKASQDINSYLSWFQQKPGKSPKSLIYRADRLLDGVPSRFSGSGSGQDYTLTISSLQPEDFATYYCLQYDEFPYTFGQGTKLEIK : Not satisfied
405B8H3-8 humanized antibody (antibody, V domains shown) VH: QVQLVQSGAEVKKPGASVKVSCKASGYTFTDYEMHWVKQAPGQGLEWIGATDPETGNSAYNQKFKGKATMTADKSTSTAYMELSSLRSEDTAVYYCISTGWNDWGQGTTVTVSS VL: DIQMTQSPSSLSASVGDRVTITCKASQDINSYLSWFQQKPGKAPKSLIYRADRLLDGVPSRFSGSGSGQDYTLTISSLQPEDFATYYCLQYDEFPYTFGQGTKLEIK : Satisfied

For this binder, is Mean fluorescence intensity lower than 20? 405B8H3-2 humanized antibody (antibody, V domains shown) VH: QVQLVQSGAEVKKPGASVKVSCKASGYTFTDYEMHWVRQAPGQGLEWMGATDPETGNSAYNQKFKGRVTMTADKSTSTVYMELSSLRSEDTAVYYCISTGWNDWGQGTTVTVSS VL: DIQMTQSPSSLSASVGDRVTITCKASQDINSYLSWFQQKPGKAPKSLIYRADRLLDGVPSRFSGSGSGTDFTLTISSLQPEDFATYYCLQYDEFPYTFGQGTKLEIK
Not satisfied

Input 405B8H3 mouse-human chimeric antibody (antibody, V domains shown, also called mAb103-405B8H3) VH: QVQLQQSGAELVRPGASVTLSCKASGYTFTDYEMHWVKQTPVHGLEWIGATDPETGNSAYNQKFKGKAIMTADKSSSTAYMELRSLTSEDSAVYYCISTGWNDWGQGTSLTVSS VL: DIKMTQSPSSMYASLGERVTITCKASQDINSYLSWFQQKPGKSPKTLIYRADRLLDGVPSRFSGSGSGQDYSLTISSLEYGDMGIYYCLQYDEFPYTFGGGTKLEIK ; condition: Mean fluorescence intensity strictly below 20. Does it hold?
Satisfied

Given the entry 405B8H3-12 humanized antibody (antibody, V domains shown) VH: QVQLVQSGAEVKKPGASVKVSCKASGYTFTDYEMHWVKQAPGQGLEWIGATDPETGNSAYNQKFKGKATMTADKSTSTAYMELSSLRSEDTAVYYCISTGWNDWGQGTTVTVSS VL: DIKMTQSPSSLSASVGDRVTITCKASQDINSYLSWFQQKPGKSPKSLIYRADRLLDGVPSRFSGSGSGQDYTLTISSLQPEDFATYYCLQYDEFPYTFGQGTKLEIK , would its reported Mean fluorescence intensity be below 20?
Not satisfied

Please check: Mean fluorescence intensity for 405B8H3-9 humanized antibody (antibody, V domains shown) VH: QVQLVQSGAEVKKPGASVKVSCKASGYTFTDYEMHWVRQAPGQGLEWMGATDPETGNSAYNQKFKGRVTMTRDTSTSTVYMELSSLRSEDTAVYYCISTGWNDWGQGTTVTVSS VL: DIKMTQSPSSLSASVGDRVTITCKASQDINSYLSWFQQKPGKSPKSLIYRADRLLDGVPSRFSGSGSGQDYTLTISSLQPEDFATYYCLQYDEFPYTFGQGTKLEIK , strictly under 20 or not?
Not satisfied

Input 405B8H3-6 humanized antibody (antibody, V domains shown) VH: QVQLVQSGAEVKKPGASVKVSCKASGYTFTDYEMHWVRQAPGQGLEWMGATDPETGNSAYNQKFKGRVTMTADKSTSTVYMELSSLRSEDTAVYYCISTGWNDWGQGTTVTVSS VL: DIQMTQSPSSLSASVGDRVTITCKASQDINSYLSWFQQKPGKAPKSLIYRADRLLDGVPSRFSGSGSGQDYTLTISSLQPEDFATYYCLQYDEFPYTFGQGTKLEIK ; condition: Mean fluorescence intensity strictly below 20. Does it hold?
Not satisfied

Lab note: Mean fluorescence intensity threshold 20. Does this binder come in strictly under it? 405B8H3-5 humanized antibody (antibody, V domains shown) VH: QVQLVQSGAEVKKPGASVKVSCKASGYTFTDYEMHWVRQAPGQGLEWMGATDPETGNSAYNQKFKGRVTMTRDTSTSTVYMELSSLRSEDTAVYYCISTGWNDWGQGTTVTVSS VL: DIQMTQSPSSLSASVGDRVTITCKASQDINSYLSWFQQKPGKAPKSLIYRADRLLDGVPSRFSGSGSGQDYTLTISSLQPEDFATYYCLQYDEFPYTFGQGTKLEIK
Not satisfied
